Below, each entry is listed with its recorded CC50.
- Test description: in vitro
- Condition notes: human
Response body: numeric value in µM, unit text excluded.

Some solved entries appear below for comparison.
CC[C@H]1C[C@H](C)[C@@]2(NC1=O)O[C@@H](C[C@H](O)[C@@H](C)CC/C=C/C=C(\C)[C@@H]1C/C=C/C=C/[C@H](O)[C@H](C)[C@@H](O)[C@@H](CCC(C)=O)C(=O)N[C@@H](C(C)C)C(=O)N[C@@H](Cc3cc(O)c(F)c(F)c3)C(=O)N3CCCC(N3)C(=O)O1)[C@H](C)[C@H](O)[C@@H]2C (stereo partly drawn) [Compound 15, 62,63-Fluoro Sanglifehrin A]
16.6
CC[C@H]1C[C@H](C)[C@@]2(NC1=O)O[C@@H](C[C@H](O)[C@@H](C)CC/C=C/C=C(\C)[C@@H]1C/C=C/C=C/[C@H](O)[C@H](C)[C@@H](O)[C@@H](CCC(C)=O)C(=O)N[C@@H](C(C)C)C(=O)N[C@@H](Cc3ccccc3)C(=O)N3CCCC(N3)C(=O)O1)[C@H](C)[C@H](O)[C@@H]2C (stereo partly drawn) [Compound 18, 61-Deshydroxy Sanglifehrin A]
11.7

Now consider the entry below.
Measured CC50, CC[C@H]1C[C@H](C)[C@@]2(NC1=O)O[C@@H](C[C@H](O)[C@@H](C)CC/C=C/C=C(\C)[C@@H]1C/C=C/C=C/[C@H](O)[C@H](C)[C@@H](O)[C@@H](CCC(C)=O)C(=O)N[C@@H](C(C)C)C(=O)N[C@@H](Cc3ccc(F)c(O)c3)C(=O)N3CCCC(N3)C(=O)O1)[C@H](C)[C@H](O)[C@@H]2C (stereo partly drawn) [Compound 16, 62-Fluoro Sanglifehrin A] : 29.7

Data provenance: patent US9271977B2
